- Read-out: TIMP1, TIMP1 (gene 7076)
- assay_protocol: LTEA_HepaRG_TIMP1: Life Technologies and Expression Analysis (LTEA) Assay for TIMP1 using HepaRG (AID 2283534)
- experimental_parameters: mRNA level, 48 h; actives raise or lower the signal
Calls of active or inactive are those of the source. Rule for the calls: active = hit-call score of the fitted dose curve at least 0.9, where 1 is the maximum; inactive = score below 0.9.
Hello, when you answer, please use one of the following outcomes: active, inactive

Recorded results for 5 compounds are shown here.
compound	assigned_label
CC(C)=CCCC(C)CCO (centres undefined)	inactive
CCCCCCCCO	inactive
CC[C@H]1OC(=O)[C@H](C)[C@@H](O[C@H]2C[C@@](C)(OC)[C@@H](O)[C@H](C)O2)[C@H](C)[C@@H](O[C@@H]2O[C@H](C)C[C@H](N(C)C)[C@H]2O)[C@](C)(O)C[C@@H](C)C(=O)[C@H](C)[C@@H](O)[C@]1(C)O	inactive
COCCOCCOCCOC	inactive
Fc1ccccc1[C@@H](F)COC1CCC(Nc2ncnc3[nH]ncc23)CC1 (some centres undefined)	inactive

Recorded call for CC(C)(O)c1coc(S(=O)(=O)NC(=O)Nc2c3c(cc4c2CCC4)CCC3)c1 ?
inactive

What about CCC(C)(C)C(=O)O[C@H]1C[C@@H](C)C=C2C=C[C@H](C)[C@H](CC[C@@H]3C[C@@H](O)CC(=O)O3)[C@H]21 ?
inactive

What about CC(C)CC(C)(O)C#CC(C)(O)CC(C)C (centres undefined) ?
inactive

What about O=C(OC[C@H]1O[C@@H](OC(=O)c2cc(O)c(O)c(OC(=O)c3cc(O)c(O)c(O)c3)c2)[C@H](OC(=O)c2cc(O)c(O)c(OC(=O)c3cc(O)c(O)c(O)c3)c2)[C@@H](OC(=O)c2cc(O)c(O)c(OC(=O)c3cc(O)c(O)c(O)c3)c2)[C@@H]1OC(=O)c1cc(O)c(O)c(OC(=O)c2cc(O)c(O)c(O)c2)c1)c1cc(O)c(O)c(OC(=O)c2cc(O)c(O)c(O)c2)c1 ?
active

----------
- assay_protocol: CCTE_Shafer_MEA_dev_network_spike_duration_std: CCTE's Neural Network Formation Assay for Standard Deviation of Network Spike Duration, Shafer Lab (AID 2284052);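 note: area under curve of spike duration SD across recording days 5 to 12; hits are decreases in network spike duration SD versus DMSO vehicle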
Calls of active or inactive are those of the source. Rule for the calls: active = hit-call score of the fitted dose curve at least 0.9, where 1 is the maximum; inactive = score below 0.9.
measurement_type: outcome

molecule	measurement_type	measured
CC[C@H](C)C(=O)O[C@H]1C[C@@H](C)C=C2C=C[C@H](C)[C@H](CC[C@@H]3C[C@@H](O)CC(=O)O3)[C@H]21	outcome	inactive
O=P(OC(CCl)CCl)(OC(CCl)CCl)OC(CCl)CCl	outcome	inactive
NC(=O)NO	outcome	inactive

----------
- Read-out: Monokine induced gamma interferon (MIG), CXCL9 (gene 4283)
- assay_protocol: BSK_3C_MIG: BioMAP Diversity Plus: 3C Assay for Monokine induced gamma interferon (MIG) Biomarker Activity (AID 2283021)
- experimental_parameters: primary human endothelial cells (HUVEC); actives raise or lower the signal
Calls of active or inactive are those of the source. Rule for the calls: active = hit-call score of the fitted dose curve at least 0.9, where 1 is the maximum; inactive = score below 0.9.
Hello, when you answer, please use one of the following outcomes: active, inactive

compound	assigned_label
Cc1ccc(C)c(O)c1	inactive

Recorded call for COCCOc1cc2cc(C(=O)NC3CCN(C(C)C)CC3)n(CC(=O)Nc3ccc(Cl)cn3)c2cn1 ?
inactive

What about C1N2CN3CN1CN(C2)C3 ?
inactive

What about CC(C)CC(C)(O)C#CC(C)(O)CC(C)C (centres undefined) ?
inactive

What about CC[C@H](C)C(=O)O[C@H]1C[C@@H](C)C=C2C=C[C@H](C)[C@H](CC[C@@H]3C[C@@H](O)CC(=O)O3)[C@H]21 ?
inactive

What about Cc1ccc(O)cc1 ?
inactive

What about O=C(CCCCCCCCc1cccnc1)N1CCC(C=C(c2ccccc2)c2ccccc2)CC1 ?
active

What about CN(C)c1ccc(Cc2ccc(N(C)C)cc2)cc1 ?
inactive

What about CN(C)c1ccc(N=NS(=O)(=O)O)cc1 ?
inactive

----------
- Read-out: CYP2C8 (gene 1558)
- assay_protocol: LTEA_HepaRG_CYP2C8: Life Technologies and Expression Analysis (LTEA) Assay for CYP2C8 using HepaRG (AID 2283483)
- experimental_parameters: mRNA level, 48 h; actives raise or lower the signal
Activity calls are given as the source filed them. Rule for the calls: active = hit-call score of the fitted dose curve at least 0.9, where 1 is the maximum; inactive = score below 0.9.
Hello, when you answer, please use one of the following outcomes: true (1) for active, false (0) for inactive

Recorded results for 6 compounds are shown here.
molecule	assigned_label
COC(=O)CC(=O)OC	false (0)
COCCOCCOCCOC	false (0)
CCOCCOCCOCCO	false (0)
Cn1c(=O)cc(Oc2ccc(F)cc2F)c2cnc(NCC(C)(C)O)nc21	false (0)
Cn1c(=O)c2c(ncn2C)n(C)c1=O	false (0)
Cc1[nH]cnc1C[C@H]1CCc2c(C)c3ccccc3n2C1=O	true (1)

Now look at this entry.
Recorded call for CC(C)(O)c1coc(S(=O)(=O)NC(=O)Nc2c3c(cc4c2CCC4)CCC3)c1 ?
false (0)

----------
- Read-out: Monokine induced gamma interferon (MIG), CXCL9 (gene 4283)
- assay_protocol: BSK_hDFCGF_MIG: BioMAP Diversity Plus: hDFCGF Assay for Monokine induced gamma interferon (MIG) Biomarker Activity (AID 2283063)
- experimental_parameters: primary human foreskin fibroblasts; actives raise or lower the signal
The source made the active and inactive calls. How the source made its calls: active means hit-call score of the fitted dose curve at least 0.9, where 1 is the maximum; inactive means score below 0.9.
Hello, when you answer, please use one of the following outcomes: active, inactive

Recorded results for 5 compounds are shown here.
molecule	assigned_label
Cn1c(=O)c2c(ncn2C)n(C)c1=O	inactive
CCCCCCc1ccc(O)cc1O	active
CC(C)=CCCC(C)=CC=O	inactive
COC(=O)c1ccccc1O	inactive
O=C(O)c1cc(N=Nc2ccc(S(=O)(=O)Nc3ccccn3)cc2)ccc1O	inactive

Recorded call for C=CC(=C)CCC=C(C)C ?
inactive

----------
- measured_on: human Retinoic Acid Receptor gamma (RARg), RARG (gene 5916) (UniProt P13631)
- Sequence (P13631 whole entry, looked up): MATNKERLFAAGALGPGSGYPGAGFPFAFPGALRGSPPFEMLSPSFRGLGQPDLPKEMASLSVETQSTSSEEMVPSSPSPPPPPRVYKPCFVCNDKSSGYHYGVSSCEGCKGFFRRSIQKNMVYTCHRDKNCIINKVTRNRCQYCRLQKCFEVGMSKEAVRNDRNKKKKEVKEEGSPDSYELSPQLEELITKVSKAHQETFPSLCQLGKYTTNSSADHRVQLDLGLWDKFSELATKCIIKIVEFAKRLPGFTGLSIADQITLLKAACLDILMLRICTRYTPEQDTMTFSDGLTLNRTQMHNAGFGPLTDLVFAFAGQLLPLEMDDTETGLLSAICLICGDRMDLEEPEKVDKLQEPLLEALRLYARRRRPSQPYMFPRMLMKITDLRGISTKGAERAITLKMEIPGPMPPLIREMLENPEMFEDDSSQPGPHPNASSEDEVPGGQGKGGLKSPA
- assay_protocol: ATG_RARg_TRANS: Attagene TRANS-FACTORIAL HepG2 Assay for human Retinoic Acid Receptor gamma (RARg) (AID 2283009)
Records with an inconclusive call do not appear. Activity calls are given as the source filed them. How the source made its calls: active means hit-call score of the fitted dose curve at least 0.9, where 1 is the maximum; inconclusive means response in the unintended direction; inactive means score below 0.9.
Hello, when you answer, please use one of the following outcomes: TRUE (active), FALSE (inactive)

Recorded results for 5 compounds are shown here.
compound	assigned_label
Cc1[nH]cnc1C[C@H]1CCc2c(C)c3ccccc3n2C1=O	FALSE
CCCN(C1CCN(C(=O)C2CCNCC2)CC1)[C@@H]1CCc2ccc(OC)cc2C1	FALSE
CCC(C)(C)C(=O)O[C@H]1C[C@@H](C)C=C2C=C[C@H](C)[C@H](CC[C@@H]3C[C@@H](O)CC(=O)O3)[C@H]21	FALSE
Nc1cccc(N)c1	FALSE
O=C1CCCCCN1	FALSE

Recorded call for CCOC(=O)c1ccc(C2CCC(NC[C@H](O)COc3ccc(O)c(NS(C)(=O)=O)c3)CC2)cc1 (some centres undefined) ?
FALSE

What about CC(C)CCO ?
FALSE

What about CNCc1ccc(NC(=O)c2c[nH]c3c2C(=O)CCC3)cc1 ?
FALSE

----------
- Read-out: CD69, CD69 (gene 969)
- assay_protocol: BSK_SAg_CD69: BioMAP Diversity Plus: SAg Assay for CD69 Biomarker Activity (AID 2283089)
- experimental_parameters: primary human HUVEC with PBMC; actives raise or lower the signal
Activity calls are given as the source filed them. Rule for the calls: active = hit-call score of the fitted dose curve at least 0.9, where 1 is the maximum; inactive = score below 0.9.
Hello, when you answer, please use one of the following outcomes: true = active, false = inactive

Recorded call for CCCCCCCCO ?
false

What about O=C(NS(=O)(=O)/C=C/c1ccccc1)c1ccc(F)cc1Cl ?
false

----------
- assay_protocol: CCTE_Shafer_MEA_acute_cross_correlation_HWHM: CCTE's Neural Acute Assay for Cross Correlation at Half Width at Half Maximum, Shafer Lab (AID 2284026);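 note: percent change per well from pre-dose baseline in spike cross-correlogram half width; hits are a decrease in cross-correlogram half width relative to DMSO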
Calls of active or inactive are those of the source. The calls were made as follows: active = hit-call score of the fitted dose curve at least 0.9, where 1 is the maximum; inactive = score below 0.9.
measurement_type: AC50

As a guide, the following entries are already answered.
molecule	measured
Cn1cnc([N+](=O)[O-])c1Sc1ncnc2nc[nH]c12	inactive
O=C(O)CCN(C1(C(=O)NO)CCCC1)S(=O)(=O)c1ccc(Oc2ccc(F)cc2)cc1	inactive
CCCN(C1CCN(C(=O)C2CCNCC2)CC1)[C@@H]1CCc2ccc(OC)cc2C1	inactive
CC[C@H]1CC[C@H](NCc2cc3c(cc2OC)[C@H]2C[C@H]2C(=O)N3C)[C@H](c2ccccc2)N1	20 µM (active)
COc1ccc2sc(C(=O)Nc3nnn[nH]3)c(OC(C)C)c2c1	inactive

Now consider the entry below.
I'd like to know its AC50. The compound in question is COc1cccc(-c2ccc(/C=C\CN3CCCCCC3)cc2Cl)c1
inactive

----------
- assay_protocol: ATG_CMV_CIS: Attagene CIS-FACTORIAL HepG2 Assay for human CMV (Internal Marker) (AID 2282928);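 note: endpoint acts as a background internal control marker rather than a target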
- experimental_parameters: HepG2 CMV promoter reporter, transcription factor profiling; actives raise or lower the signal
- Procedure: ATG_CIS is a cell-based, multiplexed-readout assay that uses HepG2, a human liver cell line, with measurements taken at 24 hours after chemical dosing in a 24-well plate.ATG_CMV_CIS is one of 52 assay component(s) measured or calculated from the ATG_CIS assay. […] This assay endpoint, ATG_CMV_CIS, was analyzed with bidirectional fitting relative to DMSO as the negative control and baseline of activity. […]
Active and inactive are the calls of the source. The calls were made as follows: active = hit-call score of the fitted dose curve at least 0.9, where 1 is the maximum; inactive = score below 0.9.
Hello, when you answer, please use one of the following outcomes: true (active), false (inactive)

molecule	assigned_label
CN(C)c1ccc(N=NS(=O)(=O)O)cc1	false
O=C(O)CC(O)C(=O)O (stereo not given)	false
CC(C)=CCC/C(C)=C\CO	false
CCCCC(CC)COC(=O)CCCCCCCCC(=O)OCC(CC)CCCC (stereo not given)	false
CC(C)c1cccc(C(C)C)c1N1C(=O)c2ccc(O)cc2C1=O	false
CCCCCCCCCCCCc1ccccc1	false
COC(=O)CC(=O)OC	false
C=CC(=C)CCC=C(C)C	false
CC[C@H]1OC(=O)[C@H](C)[C@@H](O[C@H]2C[C@@](C)(OC)[C@@H](O)[C@H](C)O2)[C@H](C)[C@@H](O[C@@H]2O[C@H](C)C[C@H](N(C)C)[C@H]2O)[C@](C)(O)C[C@@H](C)C(=O)[C@H](C)[C@@H](O)[C@]1(C)O	false
CCn1nc(Cc2ccccc2)cc1C1CCN(C[C@H]2C[C@H](N(C)[C@@H](C(=O)O)C(C)C)C[C@@H]2c2cccc(F)c2)CC1	false

Recorded call for CC(C)(O)c1coc(S(=O)(=O)NC(=O)Nc2c3c(cc4c2CCC4)CCC3)c1 ?
false

What about CCCCCCc1ccc(O)cc1O ?
true

What about CC(C)CCCCCCCOC(=O)CCCCC(=O)OCCCCCCCC(C)C ?
false

What about C=CCCCCCCCCC(=O)O ?
false

What about O=C(O)c1cccc(N(Cc2cccnc2)c2ccc(OC(F)F)c(OC(F)F)c2)c1 ?
false

What about O=C1OC(=O)C2C3C=CC(C3)C12 (stereo not given) ?
false

What about Cn1c(=O)c2c(ncn2C)n(C)c1=O ?
false
